experiment: ATP-based viability of Huh7 replicon cells – cell-based, CellTiter-Glo luminescence, basal, 48 h, cytotoxicity control for HCV replication inhibitor project, primary screen (AID 1143); conditions: higher = more signal, called active from +8 up or from −8 down;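 note: Huh7 hepatoma cells carrying a hepatitis C replication reporter with no stimulus; test concentration not given here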
METRIC NAME: z-score
Lab note: record the figure alone, no unit after it.

Request: I am curious: what z-score value has been reported for COc1ccccc1CN1C(=O)c2ccccc2[C@](Cc2ccccc2I)(C(=O)NCc2ccccc2)[C@@H]1c1ccc(CO)cc1 ?
Response: -0.553

Request: Again, but for CCCCC(=O)N(Cc1ccccc1F)[C@@H]1CC(C(=O)NCCO)=C[C@H](Oc2c(I)cc(CO)cc2OC)[C@H]1O
Response: -2.1

Request: Please do the same for C=CCN1C(=O)[C@]2(COC(c3ccc(OCCCO)cc3)=N2)Cc2ccccc21 as well.
Response: -3.34

Request: Repeat with CC(C)C(=C=CC[C@H](O)c1ccccc1OCCO)CCO
Response: -0.334

Request: Another compound to look at: C=C[C@@H](C)[C@@H](OC(=O)Nc1ccc(OC)cc1)c1ccc(O)c2ccccc12
Response: -5.48

Request: // query: COc1cc(CO)cc(I)c1O[C@H]1C=C(C(=O)NCCO)C[C@@H](N(CCc2cccc(F)c2)C(=O)CCC2CCCC2)[C@@H]1O
Response: -6.09

Request: Let us now turn to CCOC(=O)C[C@H]1[C@H](OC(=O)c2cc3ccccc3oc2=O)[C@@H](NC(=O)c2ccc3ccccc3c2)c2cc(OCCCO)ccc2N1C(=O)c1ccccc1
Response: -3.04

Request: Another compound to look at: COCCOC(=O)N1C(=O)[C@@]2(c3ccccc31)[C@H](c1ccc(O)cc1)N1[C@H](c3ccccc3)[C@H](c3ccccc3)OC(=O)[C@H]1[C@@H]2C(N)=O
Response: -1.34

Request: And the next one, NC(=O)NCC#Cc1ccc2c(c1)[C@]1(C(=O)N2)[C@H](C(=O)NC[C@H](O)c2ccccc2)[C@H]2C(=O)O[C@H](c3ccccc3)[C@H](c3ccccc3)N2[C@@H]1c1ccccc1OCCO ?
Response: -4.25

Request: Same lookup for C=CCCN(CC#C[C@H]1Oc2ccccc2S(=O)(=O)N2CCC[C@@H]12)S(=O)(=O)c1ccc(C)cc1 , please.
Response: -1.57

Request: Query [N-]=[N+]=NCc1ccccc1C[C@]1(C(=O)NCC(O)CO)COC(c2ccc(OCCCO)cc2)=N1 (some centres not stated) next
Response: -1.57

Request: What about COc1ccc([Si](C)(C)[C@H]2[C@H](CCO)O[C@@]3(C(=O)N(Cc4cccc(N5C(=O)c6cccc7cccc5c67)c4)c4ccccc43)[C@@H]2C)cc1 ?
Response: -6.95

Request: And for Cc1ccc(F)cc1S(=O)(=O)N[C@@H]1CCN(Cc2ccc(C(F)(F)F)cc2)C1 ?
Response: -4.39

Request: // query: O=C1C2C=CC(C(O)c3ccc(Br)cc3)N(n3cnnc3)C2C(=O)N1Cc1ccccc1 (configuration not stated)
Response: 0.245

Request: Repeat for the following compound: Cc1ccc(S[C@]2(C(=O)NCC(C)C)CC(=O)N(Cc3ccccc3)[C@@H]2c2ccc(CO)cc2)cc1
Response: -1.13

Request: Next record, please: CCCC[C@H]1OB(O)C[C@H]2C1=C(COc1ccccc1)C[C@H]1C(=O)N(Cc3ccccc3)C(=O)[C@H]12
Response: -1.72

Request: And the next one, NC(=O)NCC#Cc1ccc2c(c1)[C@]1(C(=O)N2)[C@H](c2ccc(O)cc2)N2[C@H](c3ccccc3)[C@H](c3ccccc3)OC(=O)[C@H]2[C@@H]1C(=O)N1CCN(c2ncccn2)CC1 ?
Response: 0.449

Request: Entry to check: COCCOC(=O)N1C(=O)[C@@]2(c3cc(C#CC4(O)CCCCCC4)ccc31)[C@H](c1ccc(O)cc1)N1[C@H](c3ccccc3)[C@H](c3ccccc3)OC(=O)[C@H]1[C@@H]2C(=O)N1CCc2cc(OC)c(OC)cc2C1
Response: -2.45

Request: Consider next the compound CCCCC(=C=CC[C@H](O)c1ccccc1OCCO)C[C@H](O)c1cc(Cl)cc(Cl)c1O in the same way.
Response: -0.433

Request: And CCCC[C@@H]1C[C@H]1[C@@H](NC(=O)c1ccccc1)c1ccccc1 ?
Response: -0.877

Request: Input O=C(NCC(O)CO)[C@@]1(Cc2ccccc2)COC(c2ccc(OCCCO)cc2)=N1 (some centres not stated)
Response: -0.0858

Request: Also check C[N+](C)(C)CCCC[C@@H]1NC(=O)[C@@H]2C[C@H](C(=O)NCCCCCCNC(=O)CS)[C@H](c3cccc(OCCO)c3)N2C1=O
Response: 0.214

---

assay: change in splice reporter luminescence, either direction, cell-based, HEK293, spliceosome inhibition project, primary screen (AID 1101); settings: HEK293 splicing luciferase reporter, 24 h, higher = more signal, called active from +8 up or from −8 down;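 note: HEK293 cells carrying a splicing-competent luciferase reporter gene; test concentration not given here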
METRIC NAME: z-score
Give the figure by itself; no unit, no explanation.

Request: Quick one: z-score for COC(=O)[C@@]1(Cc2ccc(F)cc2)[C@H]2c3cc(C(=O)N(C)C)n(CCCNc4ccc(C(F)(F)F)cc4Cl)c3C[C@H]2CN1C(=O)c1ccccc1 ?
Response: -1.75

Request: Next molecule up: CN(C)CCCC[C@@H]1NC(=O)[C@H]2C[C@@H](C(=O)NCCCCCNC(=O)CS)[C@@H](c3ccc(O)cc3)N2C1=O
Response: 1.1

Request: Next record, please: C=C(C(=O)CC[C@H](OC(=O)c1cccnc1)c1ccccc1OCCO)C(C)C
Response: 3.21

Request: Same lookup for C=C(CCCC)C(=O)CC[C@@H](OC(=O)c1ccccc1-c1ccccc1C(=O)O)c1ccc(CO)o1 , please.
Response: 0.716

Request: Then C=C(C)[C@@H]1CC=C(C(O)C2C=CC3C(=O)N(Cc4ccccc4)C(=O)C3N2n2cnnc2)CC1 (some centres undefined) ?
Response: -0.925

Request: Same lookup for COC(=O)[C@@]1(Cc2ccccc2)[C@H]2c3cc(C(=O)N(C)C)n(Cc4cc(F)c(F)c(F)c4)c3C[C@H]2CN1C(=O)c1ccccc1 , please.
Response: -3.26

Request: Proceed to CC(C)C(CO)N1C(=O)[C@@H]2[C@H]3C(=O)OCC=C[C@H]3OC23C=CCN(c2ccc4ccccc4c2)C(=O)[C@@H]13 (some centres undefined)
Response: 0.0617

Request: Thanks! And COC(=O)[C@@]1(Cc2ccc(F)cc2)[C@H]2c3cc(C(=O)N(C)C)n(CCc4c[nH]c5ccc(OC)cc45)c3C[C@H]2CN1C(=O)c1ccccc1 ?
Response: -2.71

Request: Entry CCCC[C@@H]1C[C@H]1[C@@H](NC(=O)c1ccccc1)c1ccc(-c2ccccc2)cc1 please
Response: -3.53

Request: // next record COc1ccccc1CN1C(=O)c2ccccc2[C@](Cc2ccccc2I)(C(=O)NCc2ccccc2)[C@@H]1c1ccc(CO)cc1
Response: 0.164

Request: Same read-out for [N-]=[N+]=NCc1ccccc1C[C@]1(C(=O)N2CCOCC2)N=C(c2ccc(OCCCO)cc2)O[C@H]1c1ccccc1 ?
Response: -1.18

Request: Now this one: C=C[C@@H](C)[C@@H](OC(=O)Nc1ccc(OC)cc1)c1ccc(O)c2ccccc12
Response: -0.0898

Request: Follow-up item: CN1C(=O)C2C=CC(C(O)C=Cc3ccc([N+](=O)[O-])cc3)N(N3CCCCC3)C2C1=O (centres undefined)
Response: 1.47

Request: Now consider C=CCC(OC(C)=O)[C@@H]1[C@@H](N(Cc2cc3ccccc3o2)C(=O)c2cccc3ccccc23)c2cc(OCCCO)ccc2N1C(=O)Cc1ccc2ccccc2c1 (some centres undefined) and answer again.
Response: -0.904

Request: Then what about the molecule CCCNC(=O)[C@@]1(C)c2ccccc2C(=O)N(C(C)C)[C@H]1c1ccc(CO)cc1 ?
Response: 0.208

Request: Would you mind doing C=C(/C(=C/C[C@@H](OC(C)=O)c1ccc(CO)o1)c1cnc2ccccc2c1)C(C)C as well?
Response: -0.541

Request: // repeat for O=C1O[C@H](c2ccccc2)[C@H](c2ccccc2)N2[C@H]1[C@@H](C(=O)NC[C@H](O)c1ccccc1)[C@]1(C(=O)Nc3ccc(C#CC4(O)CCCCCC4)cc31)[C@H]2c1ccccc1OCCO and report
Response: -1.11

Request: Would you kindly repeat that for CCOC(=O)C[C@H]1[C@H](OC(=O)c2ccccc2-c2ccccc2)[C@@H](NC(=O)c2ccc(-c3ccccc3)cc2)c2cc(OCCCO)ccc2N1C(=O)c1ccccc1 ?
Response: 0.119

Request: Item: CN1C(=O)C2C=CC(C(O)c3ccc(Br)cc3)N(Nc3ccccc3)C2C1=O (centres undefined)
Response: 1.11

---

For each record, write down the corresponding composite z-score.
biological target: Left-right determination factor 2 (Homo sapiens) (UniProt O00292); experiment: small molecules binding LEFTY2 protein – biochemical, small-molecule microarray, 635 nm fluorescence scan, primary screen (AID 1110); settings: higher = more signal
Sequence (O00292 whole entry, looked up): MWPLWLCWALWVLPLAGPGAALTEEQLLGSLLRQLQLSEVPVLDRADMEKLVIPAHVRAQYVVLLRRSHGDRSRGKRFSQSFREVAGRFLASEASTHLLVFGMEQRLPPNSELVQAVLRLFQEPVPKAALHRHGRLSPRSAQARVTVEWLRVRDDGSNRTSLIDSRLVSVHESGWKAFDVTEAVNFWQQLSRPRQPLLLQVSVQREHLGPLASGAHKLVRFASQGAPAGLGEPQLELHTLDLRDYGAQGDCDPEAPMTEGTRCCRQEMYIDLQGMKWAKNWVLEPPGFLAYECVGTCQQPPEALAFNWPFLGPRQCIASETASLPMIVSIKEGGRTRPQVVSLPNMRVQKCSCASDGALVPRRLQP
Quick one: just the number, no unit, thanks!

Request: Quick check: composite z-score of O=C1OCCC=C[C@H]2OC34C=CCN(c5ccc6ccccc6c5)C(=O)[C@H]3N(CCCCCCO)C(=O)[C@@H]4C12 (stereo partly drawn) ?
Response: -0.431

Request: Note, next up: C=CCN1Cc2ccccc2C[C@@]2(COC(c3ccc(OCCCO)cc3)=N2)C1=O
Response: 0.588

Request: // same read-out, input: O=C1C2C=CC(C(O)c3ccc(B(O)O)cc3)N(Nc3ccc([N+](=O)[O-])cc3)C2C(=O)N1c1ccccc1 (stereo not drawn)
Response: 0.528
